Assay System: rat brain nicotinic receptor (α7 NAChR) (Rattus norvegicus (Rat), UniProt Q05941)
Sequence (Q05941 23-502 limits assumed): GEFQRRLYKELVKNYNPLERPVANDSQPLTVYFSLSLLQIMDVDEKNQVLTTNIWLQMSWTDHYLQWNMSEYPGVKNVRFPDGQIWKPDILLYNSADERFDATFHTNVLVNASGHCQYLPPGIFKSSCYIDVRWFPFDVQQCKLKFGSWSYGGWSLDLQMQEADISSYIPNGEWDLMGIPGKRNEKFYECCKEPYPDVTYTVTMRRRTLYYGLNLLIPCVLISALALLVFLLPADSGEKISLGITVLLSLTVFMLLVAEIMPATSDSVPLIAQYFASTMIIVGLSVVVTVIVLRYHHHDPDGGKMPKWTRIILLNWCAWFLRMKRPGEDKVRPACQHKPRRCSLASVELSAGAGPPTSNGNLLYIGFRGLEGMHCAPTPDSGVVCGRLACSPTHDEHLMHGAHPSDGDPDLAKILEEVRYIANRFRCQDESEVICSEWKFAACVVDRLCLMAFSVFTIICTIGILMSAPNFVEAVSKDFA
Format: binding
Reported Property: IC50 (nM)
Record the value in nM, omitting the unit from your answer.

Problem: Output measured IC50 for this item: Cc1cccc2c(C(=O)OCC34CCN(CC3)CC4)c[nH]c12
Result: 764

Problem: For the compound O=C(OCC12CCN(CC1)CC2)c1c[nH]c2cccc(C3CC3)c12 , give its measured IC50 value.
Result: 1890

Problem: Entry Cc1cc2[nH]cc(C(=O)OCC34CCN(CC3)CC4)c2cc1C.Cl [Compound 73, hydrochloride] needs its IC50 filled in; supply it.
Result: 168

Problem: Give a short answer stating reported IC50 for Cc1cc(C)c2c(C(=O)OCC34CCN(CC3)CC4)c[nH]c2c1 .
Result: 400

Problem: Find the measured IC50 of O=C(OCC12CCN(CC1)CC2)c1c[nH]c2cc(O)cc(Cl)c12 and report it.
Result: 33.4

Problem: Give the reported value of IC50 for this record: COc1cc(Cl)cc2[nH]cc(C(=O)OCC34CCN(CC3)CC4)c12.Cl [Compound 74, hydrochloride]
Result: 181

Problem: Supply measured IC50 of COc1cc(Br)c2c(C(=O)OCC34CCN(CC3)CC4)c[nH]c2c1 in your reply.
Result: 420

Problem: State, in one line, measured IC50 of COc1ccc2c(C(=O)OCC34CCN(CC3)CC4)c[nH]c2c1
Result: 376

Problem: Please look at this compound and report its IC50: O=C(OCC12CCN(CC1)CC2)c1c[nH]c2cccc(Br)c12
Result: 58.1

Provenance of the data: patent US9434724B2
